system: K. pneumoniae ATCC 13883 (KP109)
parameter: MIC (µg/mL)
Reply with just the number (in µg/mL).

>>> result_number("CN(C)[C@@H]1C(O)=C(C(N)=O)C(=O)[C@@]2(O)C(O)=C3C(=O)c4c(O)c(NC(=O)CC5CC(F)C5)cc(F)c4C[C@H]3C[C@@H]12 (some centres unmarked) [Compound 33]")
4
>>> result_number("CN(C)[C@@H]1C(O)=C(C(N)=O)C(=O)[C@@]2(O)C(O)=C3C(=O)c4c(O)c(NC(=O)CN5CCCCC5)cc(F)c4C[C@H]3C[C@@H]12 [Compound 43]")
2
>>> result_number("COC[C@H]1CCCN1CC(=O)Nc1cc(F)c2c(c1O)C(=O)C1=C(O)[C@]3(O)C(=O)C(C(N)=O)=C(O)[C@@H](N(C)C)[C@@H]3C[C@@H]1C2 [Compound 42]")
8

Bench note, K. pneumoniae ATCC 13883 (KP109): CN(C)[C@@H]1C(O)=C(C(N)=O)C(=O)[C@@]2(O)C(O)=C3C(=O)c4c(O)c(NC(=O)CNCC(F)(F)F)cc(F)c4C[C@H]3C[C@@H]12 [Compound 22] , MIC reads 32

Bench note, K. pneumoniae ATCC 13883 (KP109): CCCNCC(=O)Nc1cc(F)c2c(c1O)C(=O)C1=C(O)[C@]3(O)C(=O)C(C(N)=O)=C(O)[C@@H](N(C)C)[C@@H]3C[C@@H]1C2 [Compound 12] , MIC reads 1
